Experiment: qHTS RealTime-Glo MT Cell Viability Assay in HepG2 cells - 32 hour (AID 1224877); further: nearly all actives have a fitted effect of over 55% in size
Settings: RealTime-Glo luminescence; series mostly up to 76.8 µM
Inconclusive results are not listed. The source made the active and inactive calls. The call rests on the fitted dose curve; in most records, active means well fitted cell-killing curve with a large enough effect in the repeat runs; inconclusive means weak or mixed curves; inactive means flat fitted curve, though single readings scatter.
recorded endpoint: outcome

Solved cases (5 shown):
O=c1nc(O)n(Cl)c(=O)n1Cl
inactive
Cc1cc(Cl)ccc1OCC(=O)O
inactive
O=C(O)c1nc(Cl)ccc1Cl
inactive
Cc1cc(-c2ccc(N)c(C)c2)ccc1N
inactive
CCCC[n+]1ccc(C)cc1
inactive

Memo: `N#CS` , reported outcome: inactive

* * *

Experiment: qHTS assay to identify small molecule antagonists of the estrogen receptor beta (ER-beta) signaling pathway - cell viability counter screen (AID 1259382); further: nearly all actives have a fitted effect of over 55% in size
Conditions: ER-beta-UAS-bla HEK293T viability, CellTiter-Glo luminescence, 16 h; series mostly up to 92.4 µM
From the text: U.S. Tox21 Program National Center for Advancing Translational Sciences [NCATS] NIH Chemical Genomics Center [NCGC] U.S. Environmental Protection Agency [EPA] National Institutes of Environmental Health Sciences [NIEHS] National Toxicology Program [NTP] U.S. Food and Drug Administration [FDA] Tox21 Assay Overview: Estrogen receptor (ER), a nuclear hormone receptor, plays an important role in development, metabolic homeostasis and reproduction. […]
Results filed as inconclusive are left out. Active and inactive are the calls of the source. The call rests on the fitted dose curve; in most records, active means well fitted cell-killing curve with a large enough effect in the repeat runs; inconclusive means weak or mixed curves; inactive means flat fitted curve, though single readings scatter.
One label from this list, please: true (active), false (inactive)

// query Hi team, can someone confirm the assay call for `CCCn1cc[n+](C)c1` ?
// result false

// query Hi, sorry to bother you, what did the test record for `CCCCCCCCCCCC(=O)O` ?
// result false

// query Kindly provide the recorded test outcome for the following compound: `O=C(O)c1nc(Cl)ccc1Cl`
// result false

// query Answer briefly: the call reported for `Nc1ccc(-c2ccc(N)c(Cl)c2)cc1Cl` in this assay.
// result true

// query // outcome(item) with item = `CC[n+]1ccccc1`
// result false

// query Recorded call for `O=c1nc(O)n(Cl)c(=O)n1Cl` ?
// result false

// query Please state the recorded outcome for this compound: `O=C(O)C(Cl)Cl`
// result false

// query # fetch the recorded call for `O=C(O)CC(O)(CC(=O)O)C(=O)O` here
// result false

// query Which result was noted for this compound in the test: `C1CCC(NC2CCCCC2)CC1`
// result false

// query Recorded test call requested for `CCC[N+]1(C)CCCCC1`
// result false

// query Test call for this compound, please: `O=c1[nH]c(=O)n(Cl)c(=O)n1Cl`
// result false

// query Test call for this compound, please: `Oc1ccccc1-c1ccccc1`
// result false

// query Any idea what this test logged for COP(=O)(OC)C(O)C(Cl)(Cl)Cl (centres undefined) ?
// result false

// query Hey, what did the test say about `CCCC[n+]1cccc(C)c1` ?
// result false

The reported numbers originate from PubChem BioAssay (Tox21).
